Let's look at some sequences and their measured apparent KD of MS2 coat protein.
Tested on: MS2 coat protein
METHOD: apparent KD of MS2 coat protein; designed switch direction (-1 OFF switch, 1 ON switch): -1; higher = weaker reporter binding
EXPERIMENTAL_CONTEXT: input ligand: microRNA oligo, concentration not stated
READOUT: apparent KD of MS2 coat protein (µM)

SEQUENCE_DATA | OBSERVED_VALUE
UGUUGUUACGCAGGAUAUGCAUGAGGAUCACCCAUGCAAUUAGAGUUAACAUGAGGAUCACCCAUGUAGAAGGGCGGGUUAACA [pwkr exNG2 2xF5 1xFMN.4] (Eterna round: R96, puzzle: Exclusion NG 2) | 0.0458
ACAAGCUUUUAGUUCGUCUUAUACACUCCUAAUAAGAAAACAUGAGGAUCACCCAUGUAAGAAAUAAGAACUCAUGU [Sesor Array 2 - Jieux - Sensor v3, turn-off variant 2] (Eterna round: R96, puzzle: Sensor v3, turn-off variant 2) | 0.297
UUUUGGCAUGUAGGAUAUGGGUCCGAUUAGGAUUUAGAAGGACAUGAGGAUCACCCAUGUGCCCUUACUUGGUCUUUUUUUUUU [EXclNG1-LROPPY18] (Eterna round: R96, puzzle: Exclusion NG 1) | 0.0192
UCGCUCCGUGUAGGAUAUCGCCGUACUAUACGGCGAGAAGGACAUGAGGAUCACCCAUGUAUGUUAUUAUCACGCGUGGCGCAA [Design 60] (Eterna round: R96, puzzle: Exclusion NG 1) | 0.0115

###

Tested on: MS2 coat protein
METHOD: apparent KD of MS2 coat protein; designed switch direction (-1 OFF switch, 1 ON switch): -1; higher = weaker reporter binding
EXPERIMENTAL_CONTEXT: Eterna round: R95; input ligand: FMN 200 uM
Lab note: anything with apparent KD of MS2 coat protein at or over 60 nM counts as 1 (yes); the rest go in 0 (no).

SEQUENCE_DATA | ASSIGNED_CLASS
GAUUAUGCGAGCUUUAGGGACAUGAGGAUCACCCAUGUUCGUCUUAUUGGUCUAGGUACGCUGACAUACCUAAAUCU [JMF 101] (puzzle: Sensor v3, turn-off variant 1) | 0 (no)
CUAGAUCUUCGGAUCUAGUACAUGAGGAUCACCCAUGUUACGAGCAGAUUUUCAUACAAGCUUUUUGCUCGUCUUAU [Sensor v3 - Turn-off variant 1 - 32] (puzzle: Sensor v3, turn-off variant 1) | 0 (no)
ACAAGCUUUUUGUUCGUCUUAUAAUAAUAAAUAAAGAUAACAUGAGGAUCACCCAUGUAACAAAGACGGACUCAUGU [Sesor Array 18 - Jieux - Sensor v3, turn-off variant 2] (puzzle: Sensor v3, turn-off variant 2) | 0 (no)
AGUGCGUAUGUGAGGAUAUGCUGGUCCUUGGAUCGGCAGAAGGCACAUGAGGAUCACCCAUGUGGUGUCGUACG [salish99_Bmod_ex4_077] (puzzle: Brourd's mod of Exclusion 4) | 1 (yes)

###

Tested on: K4 kissing-loop RNA reporter;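 also: bound reporter read as fluorescence of individual clusters on recovered sequencing chips by microscopy, with normalized cluster intensities fitted with a binding model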
METHOD: apparent KD of K4 kissing-loop reporter; higher = weaker reporter binding
EXPERIMENTAL_CONTEXT: Eterna round: R107; input ligand: theophylline 20 uM
Let's look at some sequences and their measured apparent KD of K4 kissing-loop reporter.

SEQUENCE_DATA | SCALE_UNIT | apparent KD of K4 kissing-loop reporter
UUCUGCAUCUCGGCCGCCACUCACUAGUGAUGUUAGUAAGGAGCGACUAGACAUGUCCCGUUGUUGAGGACCGGGAGAGGCUCUU [#14 K4 Tryptophan B Exclusion] | nM | 191
CCGGGCGGCUGAAGGAGCGGGCGGGCCCGAGUGAUGUUCGGGUGGGCCGUGAGGUCCGGUGCCCAGGUAGGUCGCGGUUCCGCCC [#2 Same State - Arginine B Attempt #10 (HarryS)] | nM | 215
GCCGUACGCAUGGAUACCAGCAACCCUGCCAUCCCAGUGAUGUUGGGAGGAACAUUCUCAUGCCCUUGGCAGCCAUGCGUACGGC | nM | 384
GCGGGCCAGACGGCCGCCACUCCGGGCAGUGAUGUUGCGAAAAUUCUACUAGAGUGAUGUUCUACGAGGACCGGGUCGGAACGCG [Exclusion Tryptophan B Gf 12] | nM | 495
GUAACCUUGCUCGAGUGAUGUUCGAGCGAAGGAGCGCGAGAAAUCGCAGGUAGGUCGCGCUCGAAAUUUGAGCGAACAAUUAUUA [Arg A Ex t2] | nM | 123
UAUUUAUUAACUGAUACCAGACUUAAUGAAUUGUAAAUUACUAGUGAUGUUAGUGAAUCUGUCCCUUGGCAGCAGUAUUUAUUAA [JR_Nu_ExcTheophyB_Sub028] | nM | 170
